Attribute: inhibition
Biological target: Aldo-keto reductase family 1 member B1 (Homo sapiens) (UniProt P15121)
Assay: Inhibition of aldose reductase at 1 uM
Your answer is read as %, so omit the unit and give the number.

Previously resolved entries follow.
Entry COc1ccc(-c2oc3cc(O[C@@H]4O[C@H](CO)[C@@H](O)[C@H](O)[C@H]4O)c(OC)c(O)c3c(=O)c2OC)cc1O has what inhibition? 0

Requested read-out: inhibition. Entry: COc1cc2oc(-c3ccc(O)c(O)c3)c(OC)c(=O)c2c(O)c1OC 63

Quick one: inhibition of COc1c(-c2ccc(O)c(O)c2)oc2cc(O)cc(O)c2c1=O ? 78

Sample C[C@@H]1O[C@@H](Oc2c(-c3ccc(O)c(O)c3)oc3cc(O)cc(O)c3c2=O)[C@H](O)[C@H](O)[C@H]1O — what was its inhibition? 82

Query (compound): COc1cc2oc(-c3ccc(O)c(O)c3)c(OC)c(=O)c2c(O)c1O ; field requested: inhibition 71

Fill blank: measured inhibition of the compound COc1cc2oc(-c3ccc(O)cc3)c(OC)c(=O)c2c(O)c1OC is ____. 21

Next:
May I ask what inhibition has been recorded for O=C1NC(=O)c2cccc3cccc1c23 ? 44

Sourced from ChEMBL document CHEMBL1151623
